biological target: SARS-CoV-2 spike protein (wild-type) on VSV pseudovirus (SARS-CoV-2), P0DTC2
IC50 (pVNT, GFP-positive infected cells) overview

{"binder": "P043.A.00023.E05 (antibody) heavy chain: QSLEESGGRLVTPGTPLTLTCTVSGFSLSSYAMSWVRQAPGKGLEWIGIISSSGSTYYASWAKGRFTISKTSTTVDLKITSPTTEDTATYFCARDASSRGYYYYYGMDPWGPGTLVTVSS light chain: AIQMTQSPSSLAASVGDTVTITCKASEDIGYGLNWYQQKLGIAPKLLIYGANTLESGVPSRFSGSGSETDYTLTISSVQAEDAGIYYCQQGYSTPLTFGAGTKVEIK", "unit-of-measure": "µg/ml", "IC50 (pVNT, GFP-positive infected cells)": 3.75}
{"binder": "P043.A.00095.D06 (protein sample ID 470) (antibody, V domains shown) VH: QEQLEESGGDLVKPEGSLTLTCTASGFSFSSNYWICWVRQAPGKGLEWIGCIYIGSGDTYYASWAKGRFTISKTSSTTVTLQMTSLTAADTATYFCARSYTPGSYYNMNLWGPGTLVTVSS VL: DVVMTQTPSSVSAAVGGTVTINCQASQQISNELSWYQQKSGQPPKLLIYDASDLASGVPSRFKGSGSGTEFTLTISDLESADAATYYCQSTGGASSDGNAFGGGTEVVVK", "unit-of-measure": "µg/ml", "IC50 (pVNT, GFP-positive infected cells)": 0.28}
